RUN PARAMETERS: cardiac sensitization relative to CFC-113
For each record, check the reported CS/CS113: if it is below 40 write true (1), else write false (0).

# COMPOUND, CAT
data = [
    ("C=C(F)C(F)(Br)C(F)(F)F (stereo not shown)", "true (1)"),
    ("FC(=C(C(F)(F)F)C(F)(F)F)C(F)(F)Br", "false (0)"),
    ("FC(F)(F)COCC(F)(F)F", "false (0)"),
    ("FC(C(F)C(F)(F)C(F)(F)F)C(F)(F)F (stereo not shown)", "false (0)"),
    ("FC(F)(Br)C=C(C(F)(F)F)C(F)(F)F [4-bromo-1,1,1,4,4-pentafluoro-2-(trifluoromethyl)-2-butene]", "false (0)"),
    ("FC(F)(Br)OC=C(C(F)(F)F)C(F)(F)F", "false (0)"),
    ("FC(F)(F)/C=C/OC(F)(F)Br", "false (0)"),
    ("FC(Cl)C(F)(F)C(F)(F)Cl (stereo not shown)", "true (1)"),
    ("FC(Br)=C(C(F)(F)F)C(F)(F)F", "false (0)"),
    ("C=C(Br)C(F)(F)C(F)(F)F", "true (1)"),
    ("FC(F)(F)COCC(F)(F)Br", "false (0)"),
    ("F/C(OC(F)(F)Br)=C(/F)C(F)(F)F", "false (0)"),
    ("FC(F)(Br)C=C(C(F)(F)F)C(F)(F)F [1,1,1,4,4-pentafluoro-4-bromo-2-trifluoromethyl-2-butene]", "false (0)"),
    ("FC(F)=C(F)OC(F)(F)C(F)(F)Br", "true (1)"),
    ("Fc1c(F)c(C(F)(F)F)c(F)c(F)c1Br", "true (1)"),
    ("FC(F)OC(Cl)C(F)(F)F (stereo not shown) [reference compound]", "false (0)"),
    ("FC(F)=C(F)C(F)(Br)C(F)(F)F (stereo not shown)", "true (1)"),
    ("FC1C(F)C(F)(F)C(F)(F)C(F)C1(F)F (stereo not shown)", "true (1)"),
    ("FC(F)(F)/C=C\\C(F)(F)Br", "true (1)"),
    ("F/C(=C(/F)C(F)(F)Br)C(F)(F)F [(E)-1-bromo-perfluoro-2-butene]", "false (0)"),
    ("FC(F)(F)/C=C\\OC(F)(F)Br", "false (0)"),
    ("FC(F)(F)C(F)(F)C(Cl)Cl", "true (1)"),
    ("CC(=O)C(F)(F)C(F)(F)C(F)(F)F", "true (1)"),
    ("FC(F)=C(F)C(F)(F)CBr", "true (1)"),
    ("FC1(F)C(Cl)=C(Cl)C(F)(F)C(F)(F)C1(F)F", "true (1)"),
    ("COC(F)(F)C(F)(F)C(F)(F)C(F)(F)F", "false (0)"),
    ("FCOC(C(F)(F)F)C(F)(F)F [reference compound]", "false (0)"),
    ("Fc1c(F)c(Br)c(F)c(C(F)(F)F)c1F", "true (1)"),
    ("FC(F)OC(F)(F)C(F)(F)OC(F)F", "false (0)"),
    ("FC(F)(F)/C=C(/Br)C(F)(F)F", "false (0)"),
    ("COC(F)=C(C(F)(F)F)C(F)(F)F", "false (0)"),
    ("F/C(=C(\\Br)C(F)(F)F)C(F)(F)F", "false (0)"),
    ("C=CC(F)(F)Br", "true (1)"),
    ("FC(F)(F)/C=C/C(F)(F)Br", "true (1)"),
    ("C=C(F)C(F)(F)Br", "true (1)"),
    ("C=CC(F)(Cl)C(F)(F)Br (stereo not shown)", "true (1)"),
    ("CCOC(F)(F)C(F)(F)C(F)(F)C(F)(F)F", "false (0)"),
    ("C=CC(F)(F)C(F)(F)Br", "true (1)"),
    ("Fc1c(F)c(F)c(C(F)(F)Br)c(F)c1F", "true (1)"),
    ("FC(F)=C(F)C(F)(F)C(F)(F)Br", "true (1)"),
    ("FC(OC(F)(F)Br)=C(C(F)(F)F)C(F)(F)F", "false (0)"),
    ("F/C(OC(F)(F)Br)=C(\\F)C(F)(F)F", "false (0)"),
]
